Data provenance is paper PMC9482650.

# system: T1, SNTB2, Q13425
# T1 sequence (Q13425 110-208, limits assumed, looked up): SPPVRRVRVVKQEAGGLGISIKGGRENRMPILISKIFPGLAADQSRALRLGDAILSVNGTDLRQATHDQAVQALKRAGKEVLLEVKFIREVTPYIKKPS
# test_description: holdup assay
# Design: key: below the threshold = too weak to quantify, mostly under pKd 3.1 to 4
# study_conditions: plain residues with an end cap or a label only (N-terminal biotin on a linker: ttds)
measured_property: pKd

Some binders with recorded pKd:
binder: PKTPPTDTSV [KIR3DL3, Q8N743]
measured_property: pKd
reading: below the threshold
//
binder: RSLEEEESQL [GRASP, Q7Z6J2]
measured_property: pKd
reading: below the threshold
//
binder: STLTIFETAL [ABCC4, O15439]
measured_property: pKd
reading: 4.49
//
binder: SSRTRRETQL [HPV16-E6, P03126]
measured_property: pKd
reading: 4.12
//
binder: QSARYRDTEL [TJP2, Q9UDY2]
measured_property: pKd
reading: below the threshold
//
binder: SVWLRKETRV [CYSLTR2, Q9NS75]
measured_property: pKd
reading: 5.14

Please look at the following binder next.
-- ask Using known records, supply pKd for SRPQRTQTQV [HPV67-E6, A4U7F2]
-- reply below the threshold
